Conditions: xylene; stood at room temperature overnight
reported_endpoint: Solubility, Xylene (w/v %)
// units = w/v %; emit number, no label

Q: Given C[N+](C)(C)CCCC[N+](C)(C)C.O=C(C=C([O-])C(F)(F)F)c1ccc2ccccc2c1.O=C(C=C([O-])C(F)(F)F)c1ccc2ccccc2c1.O=C(C=C([O-])C(F)(F)F)c1ccc2ccccc2c1.O=C(C=C([O-])C(F)(F)F)c1ccc2ccccc2c1.O=C(C=C([O-])C(F)(F)F)c1ccc2ccccc2c1.O=C(C=C([O-])C(F)(F)F)c1ccc2ccccc2c1.O=C(C=C([O-])C(F)(F)F)c1ccc2ccccc2c1.O=C(C=C([O-])C(F)(F)F)c1ccc2ccccc2c1.[Al+3].[Al+3] , state its recorded Solubility, Xylene.
Result: 0.10

Q: Same question for C[N+](C)(C)c1ccc(-c2ccc([N+](C)(C)C)cc2)cc1.O=C(C=C([O-])C(F)(F)F)c1ccc2ccccc2c1.O=C(C=C([O-])C(F)(F)F)c1ccc2ccccc2c1.O=C(C=C([O-])C(F)(F)F)c1ccc2ccccc2c1.O=C(C=C([O-])C(F)(F)F)c1ccc2ccccc2c1.O=C(C=C([O-])C(F)(F)F)c1ccc2ccccc2c1.O=C(C=C([O-])C(F)(F)F)c1ccc2ccccc2c1.O=C(C=C([O-])C(F)(F)F)c1ccc2ccccc2c1.O=C(C=C([O-])C(F)(F)F)c1ccc2ccccc2c1.[Eu+3].[Eu+3] please.
Result: 0.52

Q: Next: C[N+](C)(C)CCCC[N+](C)(C)C.O=C(C=C([O-])C(F)(F)F)c1ccc2ccccc2c1.O=C(C=C([O-])C(F)(F)F)c1ccc2ccccc2c1.O=C(C=C([O-])C(F)(F)F)c1ccc2ccccc2c1.O=C(C=C([O-])C(F)(F)F)c1ccc2ccccc2c1.O=C(C=C([O-])C(F)(F)F)c1ccc2ccccc2c1.O=C(C=C([O-])C(F)(F)F)c1ccc2ccccc2c1.O=C(C=C([O-])C(F)(F)F)c1ccc2ccccc2c1.O=C(C=C([O-])C(F)(F)F)c1ccc2ccccc2c1.[Tb+3].[Tb+3]
Result: 0.32

Q: Would you mind doing CCCC[N+](C)(C)CCCC[N+](C)(C)CCCC.O=C(C=C([O-])C(F)(F)F)c1ccc2ccccc2c1.O=C(C=C([O-])C(F)(F)F)c1ccc2ccccc2c1.O=C(C=C([O-])C(F)(F)F)c1ccc2ccccc2c1.O=C(C=C([O-])C(F)(F)F)c1ccc2ccccc2c1.O=C(C=C([O-])C(F)(F)F)c1ccc2ccccc2c1.O=C(C=C([O-])C(F)(F)F)c1ccc2ccccc2c1.O=C(C=C([O-])C(F)(F)F)c1ccc2ccccc2c1.O=C(C=C([O-])C(F)(F)F)c1ccc2ccccc2c1.[Eu+3].[Eu+3] as well?
Result: 3.22
